experimentalProtocol: recombinant UMI read abundance after kanamycin selection (control-corrected) (log10(CPM+1)); higher = more efficient recombination; extreme values may be limits of the assay; sequences stand for … in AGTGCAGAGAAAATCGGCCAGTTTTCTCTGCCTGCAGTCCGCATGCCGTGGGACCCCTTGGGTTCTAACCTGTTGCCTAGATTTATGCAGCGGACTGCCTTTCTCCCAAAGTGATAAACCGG…AGGTTGGTTTCACT; site = the 11-nt donor;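 further: IS621 bridge recombinase in Escherichia coli cells against a fixed T5 target plasmid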
resultType: recombinant UMI read abundance (log10)
Enter the number alone.

For orientation, consider the following solved cases.
TAGCCCTCATGGACCGGTTTTCCCGGTAATCCGTATTTGGT (site TAGCCTTCTAC) :: 0
GAAGATGCATGGACCGGTTTTCCCGGTAATCCGTATTTGTT (site GAAGATGCTAA) :: 2.81
CGGAATCCATGGACCGGTTTTCCCGGTAATCCGTATTTGAT (site CGGAATCCTAA) :: 0

Task: Using known records, supply recombinant UMI read abundance (log10) for AGCCTTGCATGGACCGGTTTTCCCGGTAATCCGTATTTGTT (site AGCCTTGCTAA)
Output: 0

Task: Using known records, supply recombinant UMI read abundance (log10) for AACGGTCCATGGACCGGTTTTCCCGGTAATCCGTATTTGAT (site AACGGTCCTAT)
Output: 0

Task: Using known records, supply recombinant UMI read abundance (log10) for CTAGTATCATGGACCGGTTTTCCCGGTAATCCGTATTTGAC (site CTAGTAGCTGG)
Output: 0

Task: Using known records, supply recombinant UMI read abundance (log10) for AGGGAGACATGGACCGGTTTTCCCGGTAATCCGTATTTGCC (site AGGGAGACTGG)
Output: 1.26

Task: Using known records, supply recombinant UMI read abundance (log10) for ATCCATGCATGGACCGGTTTTCCCGGTAATCCGTATTTGAG (site ATCCAGGCTCT)
Output: 0.0333

Task: Using known records, supply recombinant UMI read abundance (log10) for GAGCTCACATGGACCGGTTTTCCCGGTAATCCGTATTTGAT (site GAGCTCACTAA)
Output: 0.00273

Task: Using known records, supply recombinant UMI read abundance (log10) for ATGACTCCATGGACCGGTTTTCCCGGTAATCCGTATTTGGA (site ATGACTCCTTC)
Output: 0.437

Task: Using known records, supply recombinant UMI read abundance (log10) for CGTAACACATGGACCGGTTTTCCCGGTAATCCGTATTTGCC (site CGTAACACTGG)
Output: 2.01

Task: Using known records, supply recombinant UMI read abundance (log10) for ATCAGACCATGGACCGGTTTTCCCGGTAATCCGTATTTGCA (site ATCAGACCTTG)
Output: 0

Task: Using known records, supply recombinant UMI read abundance (log10) for ATTAGAACATGGACCGGTTTTCCCGGTAATCCGTATTTGAG (site AATAGAACTCT)
Output: 0.403

Task: Using known records, supply recombinant UMI read abundance (log10) for GAATAGCCATGGACCGGTTTTCCCGGTAATCCGTATTTGCA (site GAATAGCCTTG)
Output: 0.97

Task: Using known records, supply recombinant UMI read abundance (log10) for CACTCGTCATGGACCGGTTTTCCCGGTAATCCGTATTTGCC (site CACTCTTCTGG)
Output: 0

Task: Using known records, supply recombinant UMI read abundance (log10) for CGATGATCATGGACCGGTTTTCCCGGTAATCCGTATTTGCT (site CGATCATCTAG)
Output: 0.00821

Task: Using known records, supply recombinant UMI read abundance (log10) for CGCTGGACATGGACCGGTTTTCCCGGTAATCCGTATTTGAA (site CGCTGGACTTT)
Output: 1.77

Task: Using known records, supply recombinant UMI read abundance (log10) for ATAGTATCATGGACCGGTTTTCCCGGTAATCCGTATTTGCG (site ACAGTATCTTG)
Output: 1.46
